tested on: M. smegmatis ΔrrnB 1491C (16S rRNA position 1491 C, eukaryotic mitochondrial ribosome); experiment: MIC, recombinant M. smegmatis with mutant ribosomes 1491C; type: cell-based, Mycobacterium smegmatis; settings: M. smegmatis ΔrrnB 1491C mutant ribosomes; 72 h at 37° C.
Attribute Measured: minimal inhibitory concentrations ΔrrnB 1491C

Query :: Report measured minimal inhibitory concentrations ΔrrnB 1491C; entry is COc1ccc(COC2C(CO)OC(OC3C(N)CC(N)C(O)C3OC3OC(CO)C(OC4OC(CN)C(O)C(O)C4N)C3O)C(N)C2O)cc1 (centres unmarked) [Compound 19e, 4′-p-Methoxybenzylparomomycin]
Result :: >512 µg/mL

====

system: M. smegmatis ΔrrnB 1491A (16S rRNA position 1491 A, eukaryotic cytosolic ribosomes); experiment: MIC, recombinant M. smegmatis with mutant ribosomes 1491A; type: cell-based, Mycobacterium smegmatis; details: M. smegmatis ΔrrnB 1491A mutant ribosomes; 72 h at 37° C.
Attribute Measured: minimal inhibitory concentrations ΔrrnB 1491A

Some entries whose results are on file:
Query :: Please list minimal inhibitory concentrations ΔrrnB 1491A recorded for the molecule `NC[C@@H]1O[C@H](O[C@H]2[C@@H](O)[C@H](O[C@@H]3[C@@H](O)[C@H](N)C[C@H](N)[C@H]3O[C@H]3O[C@@H]4CO[C@@H](c5ccc(F)cc5)O[C@H]4[C@H](O)[C@H]3N)O[C@@H]2CO)[C@H](N)[C@@H](O)[C@@H]1O`
Result :: >512 µg/mL

Query :: Output minimal inhibitory concentrations ΔrrnB 1491A of NC[C@@H]1O[C@H](O[C@H]2[C@@H](O)[C@H](O[C@@H]3[C@@H](O)[C@H](N)C[C@H](N)[C@H]3O[C@H]3O[C@H](CO)[C@@H](OCCCc4ccccc4)[C@H](O)[C@H]3N)O[C@@H]2CO)[C@H](N)[C@@H](O)[C@@H]1O [Compound 19c, 4′-p-(3-phenylpropyl)paromomycin]
Result :: ≧512 μg/ml

Query :: Item `N#Cc1ccc([C@@H]2OC[C@H]3O[C@H](O[C@H]4[C@H](O[C@@H]5O[C@H](CO)[C@@H](O[C@H]6O[C@@H](CN)[C@@H](O)[C@H](O)[C@H]6N)[C@H]5O)[C@@H](O)[C@H](N)C[C@@H]4N)[C@H](N)[C@@H](O)[C@@H]3O2)cc1` : provide minimal inhibitory concentrations ΔrrnB 1491A
Result :: >512 µg/mL

Query :: Provide only the value of recorded minimal inhibitory concentrations ΔrrnB 1491A for NC[C@@H]1O[C@H](O[C@H]2[C@@H](O)[C@H](O[C@@H]3[C@@H](O)[C@H](N)C[C@H](N)[C@H]3O[C@H]3O[C@@H]4COC(C=Cc5ccccc5)O[C@H]4[C@H](O)[C@H]3N)O[C@@H]2CO)[C@H](N)[C@@H](O)[C@@H]1O (some centres unmarked)
Result :: ≧512 μg/ml

Next:
Query :: Entry CC(=O)O.CC(=O)O.CC(=O)O.CC(=O)O.COc1cccc(C2OCC3OC(OC4C(N)CC(N)C(O)C4OC4OC(CO)C(OC5OC(CN)C(O)C(O)C5N)C4O)C(N)C(O)C3O2)c1 (centres unmarked) needs its minimal inhibitory concentrations ΔrrnB 1491A filled in; supply it.
Result :: 512 µg/mL

====

tested on: M. smegmatis ΔrrnB 1491A (16S rRNA position 1491 A, eukaryotic cytosolic ribosomes); experiment: MIC, recombinant M. smegmatis with mutant ribosomes 1491A; format: cell-based, Mycobacterium smegmatis; conditions: M. smegmatis ΔrrnB 1491A mutant ribosomes; 72 h at 37° C.
Attribute Measured: minimal inhibitory concentrations ΔrrnB 1491A

Query :: Give a short answer stating reported minimal inhibitory concentrations ΔrrnB 1491A for COc1ccc(COC2C(CO)OC(OC3C(N)CC(N)C(O)C3OC3OC(CO)C(OC4OC(CN)C(O)C(O)C4N)C3O)C(N)C2O)cc1 (stereo not shown) [Compound 19e, 4′-p-Methoxybenzylparomomycin] .
Result :: >512 µg/mL

Query :: Look up and state reported minimal inhibitory concentrations ΔrrnB 1491A for NC[C@@H]1O[C@H](O[C@H]2[C@@H](O)[C@H](O[C@@H]3[C@@H](O)[C@H](N)C[C@H](N)[C@H]3O[C@H]3O[C@H](CO)[C@@H](OCc4ccc(C(F)(F)F)cc4)[C@H](O)[C@H]3N)O[C@@H]2CO)[C@H](N)[C@@H](O)[C@@H]1O [Compound 19b, 4′-p-(trifluoromethyl)benzylparomomycin]
Result :: >512 µg/mL

Query :: Provide one value: measured minimal inhibitory concentrations ΔrrnB 1491A of `COc1cc([C@@H]2OC[C@H]3O[C@H](O[C@H]4[C@H](O[C@@H]5O[C@H](CO)[C@@H](O[C@H]6O[C@@H](CN)[C@@H](O)[C@H](O)[C@H]6N)[C@H]5O)[C@@H](O)[C@H](N)C[C@@H]4N)[C@H](N)[C@@H](O)[C@@H]3O2)cc(OC)c1OC`
Result :: >512 µg/mL

Working through the 2 compounds below one at a time, give minimal inhibitory concentrations ΔrrnB 1491A for each.
1. NC[C@@H]1O[C@H](O[C@H]2[C@@H](O)[C@H](O[C@@H]3[C@@H](O)[C@H](N)C[C@H](N)[C@H]3O[C@H]3O[C@@H]4CO[C@@H](c5ccc([N+](=O)[O-])cc5)O[C@H]4[C@H](O)[C@H]3N)O[C@@H]2CO)[C@H](N)[C@@H](O)[C@@H]1O
2. NC[C@@H]1O[C@H](O[C@H]2[C@@H](O)[C@H](O[C@@H]3[C@@H](O)[C@H](N)C[C@H](N)[C@H]3O[C@H]3O[C@@H]4COC(c5cccs5)O[C@H]4[C@H](O)[C@H]3N)O[C@@H]2CO)[C@H](N)[C@@H](O)[C@@H]1O (stereo partly shown)

Result ::
1. >512 µg/mL
2. >512 µg/mL

Provide reported minimal inhibitory concentrations ΔrrnB 1491A for each item, in the same order as listed.
1. NC[C@@H]1O[C@H](O[C@H]2[C@@H](O)[C@H](O[C@@H]3[C@@H](O)[C@H](N)C[C@H](N)[C@H]3O[C@H]3O[C@@H]4CO[C@@H](c5ccccc5)O[C@H]4[C@H](O)[C@H]3N)O[C@@H]2CO)[C@H](N)[C@@H](O)[C@@H]1O
2. NC[C@@H]1O[C@H](O[C@H]2[C@@H](O)[C@H](O[C@@H]3[C@@H](O)[C@H](N)C[C@H](N)[C@H]3O[C@H]3O[C@@H]4CO[C@@H](c5cc(Cl)cc(Cl)c5)O[C@H]4[C@H](O)[C@H]3N)O[C@@H]2CO)[C@H](N)[C@@H](O)[C@@H]1O
3. NC[C@@H]1O[C@H](O[C@H]2[C@@H](O)[C@H](O[C@@H]3[C@@H](O)[C@H](N)C[C@H](N)[C@H]3O[C@H]3O[C@@H]4CO[C@@H](c5ccccc5[N+](=O)[O-])O[C@H]4[C@H](O)[C@H]3N)O[C@@H]2CO)[C@H](N)[C@@H](O)[C@@H]1O

Result ::
["512 µg/mL", "128 to 256 µg/mL", "512 µg/mL"]

List the reported minimal inhibitory concentrations ΔrrnB 1491A of each compound below.
1. NC[C@@H]1O[C@H](O[C@H]2[C@@H](O)[C@H](O[C@@H]3[C@@H](O)[C@H](N)C[C@H](N)[C@H]3O[C@H]3O[C@@H]4CO[C@@H](c5ccc6ccccc6c5)O[C@H]4[C@H](O)[C@H]3N)O[C@@H]2CO)[C@H](N)[C@@H](O)[C@@H]1O
2. NC[C@@H]1O[C@H](O[C@H]2[C@@H](O)[C@H](O[C@@H]3[C@@H](O)[C@H](N)C[C@H](N)[C@H]3O[C@H]3O[C@@H]4COC(c5ccco5)O[C@H]4[C@H](O)[C@H]3N)O[C@@H]2CO)[C@H](N)[C@@H](O)[C@@H]1O (stereo partly shown)
3. COc1ccccc1[C@@H]1OC[C@H]2O[C@H](O[C@H]3[C@H](O[C@@H]4O[C@H](CO)[C@@H](O[C@H]5O[C@@H](CN)[C@@H](O)[C@H](O)[C@H]5N)[C@H]4O)[C@@H](O)[C@H](N)C[C@@H]3N)[C@H](N)[C@@H](O)[C@@H]2O1
4. COc1ccc(OC)c(C2OC[C@H]3O[C@H](O[C@H]4[C@H](O[C@@H]5O[C@H](CO)[C@@H](O[C@H]6O[C@@H](CN)[C@@H](O)[C@H](O)[C@H]6N)[C@H]5O)[C@@H](O)[C@H](N)C[C@@H]4N)[C@H](N)[C@@H](O)[C@@H]3O2)c1 (stereo partly shown)

Result ::
["512 µg/mL", ">512 µg/mL", ">512 µg/mL", ">512 µg/mL"]
